Recorded inhibition values for a group of molecules are listed next.
# TARGET_OR_TEST_SYSTEM: Potassium-transporting ATPase (Sus scrofa) (UniProt P18434+P19156)
# PROTOCOL_DETAILS: Inhibition of procine gastric H+,K+-ATPase at 1 uM in vitro.
# Format: tissue-based
# ASSAY_CONDITIONS: Stomach

MOLECULE: C[C@]12CCC3=CC(=O)c4ccccc4[C@@]3(CC1)C2
inhibition: -2%
//
MOLECULE: C[C@]12CC[C@@]3(C1)c1ccccc1C(=O)C[C@H]3C[C@@H]2O
inhibition: 18%
//
MOLECULE: CC1=CCC(CC(O)c2ccccc2I)C(=O)CC1 (stereo not given)
inhibition: 10%
//
MOLECULE: COCO[C@H]1C[C@@H]2CC(=O)C3[C@@H](C#N)CCC[C@]3(C)[C@]23CC[C@@]1(C)C3 (stereo not given in full)
inhibition: 5%
//
MOLECULE: CO[C@H]1C[C@@H]2C[C@H](O)c3c(C(=O)O)cccc3[C@]23CC[C@@]1(C)C3
inhibition: -6%
//
MOLECULE: C[C@]12C=CC3=CC(=O)c4ccccc4[C@@]3(CC1)C2
inhibition: 16%
//
MOLECULE: CC1=CCC(CCO)C(=O)CC1 (stereo not given)
inhibition: 11%
//
MOLECULE: COCO[C@H]1C[C@@H]2C[C@@H](O[Si](C)(C)C)C3[C@@H](C#N)CCC[C@]3(C)[C@]23CC[C@@]1(C)C3 (stereo not given in full)
inhibition: 4%
//
MOLECULE: C[C@]12CC[C@]3(C1)C(=CC(=O)c1ccccc13)C[C@@H]2O
inhibition: 8%
//
MOLECULE: C=C[C@@]1(C)C[C@@H]1C(=O)CCC(O[Si](C)(C)C(C)(C)C)c1ccccc1I (stereo not given in full)
inhibition: 29%
//
MOLECULE: C=C[C@@]1(C)C[C@@H]1C(=O)CCC(O)c1ccccc1I (stereo not given in full)
inhibition: 8%
//
MOLECULE: C=C1CCC(C)=CCC1CC(O[Si](C)(C)C(C)(C)C)c1ccccc1I (stereo not given)
inhibition: 15%
//
MOLECULE: CC1=CCC(CC(O[Si](C)(C)C(C)(C)C)c2ccccc2I)C(=O)CC1 (stereo not given)
inhibition: 30%
//
MOLECULE: C=C1CCC(C)=CC[C@@H]1C[C@@H](O)C#CCCCC1OCCO1
inhibition: 8%
//
MOLECULE: C[C@]12CC[C@]3(C1)[C@H](CC2=O)C[C@@H](OC(=O)c1ccccc1)[C@H]1[C@](C)(C(=O)O)CCC[C@@]13C
inhibition: 7%
//
MOLECULE: CO[C@H]1C[C@@H]2C[C@@H]3OC(=O)c4cccc(c43)[C@]23CC[C@@]1(C)C3
inhibition: 1%
//
MOLECULE: CO[C@H]1C[C@@H]2CC(=O)C3=C(CCC[C@@]3(C)CO)[C@]23CC[C@@]1(C)C3
inhibition: 9%
//
MOLECULE: COC(=O)[C@]1(C)CCC[C@@]2(C)[C@H]1[C@H](OC(=O)c1ccccc1)C[C@H]1CC(=O)[C@@]3(C)CC[C@]12C3
inhibition: 36%
//
MOLECULE: C=C1CCC(C)=CC[C@@H]1C[C@H](/C=C(\I)CCCC1OCCO1)O[Si](C)(C)C(C)(C)C
inhibition: 14%
//
MOLECULE: COCO[C@H]1C[C@@H]2C[C@@H](O[Si](C)(C)C)C3[C@](C#N)(COCc4ccccc4)CCC[C@]3(C)[C@]23CC[C@@]1(C)C3 (stereo not given in full)
inhibition: 25%
